Molecular target: T1, recombinant human IL-12 (rhIL-12) (human, UniProt P29459 23-219; P29460 23-328)
T1 chain 1: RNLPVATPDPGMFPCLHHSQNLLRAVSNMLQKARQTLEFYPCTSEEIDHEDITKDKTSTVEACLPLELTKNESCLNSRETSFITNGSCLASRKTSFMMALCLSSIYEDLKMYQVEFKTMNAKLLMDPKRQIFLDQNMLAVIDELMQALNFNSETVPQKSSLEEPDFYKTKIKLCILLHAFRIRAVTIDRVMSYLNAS
T1 chain 2: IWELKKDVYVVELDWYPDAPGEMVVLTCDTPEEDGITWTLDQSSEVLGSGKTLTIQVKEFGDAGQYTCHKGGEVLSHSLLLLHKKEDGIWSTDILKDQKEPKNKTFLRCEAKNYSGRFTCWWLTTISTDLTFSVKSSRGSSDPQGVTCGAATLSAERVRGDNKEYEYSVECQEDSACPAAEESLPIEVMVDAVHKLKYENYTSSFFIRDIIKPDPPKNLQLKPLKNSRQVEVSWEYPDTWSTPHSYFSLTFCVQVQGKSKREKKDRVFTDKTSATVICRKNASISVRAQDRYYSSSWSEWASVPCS
Experiment: BIAcore
measured-property: koff
Reply with the number, then its unit.

For this binder ( SGGRSNIGSITVK [Y61 L31 I] ), measured koff is 9.7e-05 s⁻¹

Lab note: measured koff of SGGRSNIGSNIVK [Y61 L32 I] was 0.00154 s⁻¹

Entry SGGRSNIGSMTVK [Y61 L31 M] ; koff = 0.000174 s⁻¹
